# assayProcedure: Stability in human plasma assessed as parent compound remaining after 5 hrs relative to control
# Format: ADME, cell-free
# measurementContext: read-out: Stability
measuredParameter: remaining at 5 h (%)
Numbers only, in %.

Sure, the documented remaining at 5 h for CN(C)CC(=O)Nc1cc(F)c2c(c1)CC(CNCCC1CN(c3cnc4c(n3)NC(=O)CO4)C(=O)O1)C2 (stereo unspecified) is 76

---

Give inhibition at 1 µM for every item shown.
# assaySystem: hERG (KCNH2) (Homo sapiens, UniProt Q12809)
# assayProcedure: Inhibition of hERG potassium channel expressed in CHO cells at 1 uM by electrophysiological patch clamp assay relative to control
# Assay type: toxicity, cell-based
# measurementContext: CHO cells expressing hERG

For each of the compounds below, note its inhibition at 1 µM.
1. O=C(CN1CCC1)Nc1cc(F)c2c(c1)CC(CNCCC1CN(c3cnc4c(n3)NC(=O)CO4)C(=O)O1)C2 (stereo unspecified)
2. N#Cc1cc(OCC2(N)CC2)cc2c1CC(CNCCC1CN(c3ccc4c(n3)NC(=O)CO4)C(=O)O1)C2 (stereo unspecified)
3. CN(C)C(C)(C)C(=O)Nc1cc(F)c2c(c1)CC(CNCCC1CN(c3cnc4c(n3)NC(=O)CO4)C(=O)O1)C2 (stereo unspecified)
4. NC1(COc2cc(F)c3c(c2)CC(CNCCC2CN(c4ccc5c(n4)NC(=O)CO5)C(=O)O2)C3)CC1 (stereo unspecified)
5. C[C@@H](N)COc1cc(F)c2c(c1)CC(CN1CCC3(CC1)CN(c1cnc4c(n1)NC(=O)CO4)C(=O)O3)C2 (stereo partly specified)
6. CC(C)(N)COc1cc(C#N)c2c(c1)CC(CNCCC1CN(c3ccc4c(n3)NC(=O)CO4)C(=O)O1)C2 (stereo unspecified)
7. N#Cc1cc(OCC2CNC2)cc2c1CC(CNCCC1CN(c3ccc4c(n3)NC(=O)CO4)C(=O)O1)C2 (stereo unspecified)

1. < 1%
2. < 1%
3. 5%
4. < 1%
5. 6.7%
6. 3.5%
7. < 1%

Your task in this section: give inhibition at 1 µM for each listed record.
1. CN(C)CC(=O)Nc1cc(F)c2c(c1)CC(CNCCC1CN(c3cnc4c(n3)NC(=O)CO4)C(=O)O1)C2 (stereo unspecified)
2. N#Cc1cc(OCCN)cc2c1CC(CNCCC1CN(c3ccc4c(n3)NC(=O)CO4)C(=O)O1)C2 (stereo unspecified)
3. N#Cc1cc(OC2CNC2)cc2c1CC(CNCCC1CN(c3ccc4c(n3)NC(=O)CO4)C(=O)O1)C2 (stereo unspecified)
4. N#Cc1cccc2c1CC(CNCCC1CN(c3ccc4c(n3)NC(=O)CO4)C(=O)O1)C2 (stereo unspecified)
5. CC(N)COc1cc(F)c2c(c1)CC(CNCCC1CN(c3ccc4c(n3)NC(=O)CO4)C(=O)O1)C2 (stereo unspecified)
6. CS(=O)(=O)NCCOc1cc(C#N)c2c(c1)CC(CNCCC1CN(c3ccc4c(n3)NC(=O)CO4)C(=O)O1)C2 (stereo unspecified)

1. < 1%
2. < 1%
3. < 1%
4. 55%
5. < 1%
6. < 1%

Report inhibition at 1 µM for each item below.
1. N#CCOc1cc(F)c2c(c1)CC(CNCCC1CN(c3ccc4c(n3)NC(=O)CO4)C(=O)O1)C2 (stereo unspecified)
2. C[C@H](C(=O)Nc1cc(F)c2c(c1)CC(CNCCC1CN(c3cnc4c(n3)NC(=O)CO4)C(=O)O1)C2)N(C)C (stereo in doubt; 2e)

["84%", "< 1%"]

Form: compound = NC1(COc2cc(F)c3c(c2)CC(CNCCC2CN(c4cnc5c(n4)NC(=O)CO5)C(=O)O2)C3)CC1 (stereo unspecified) ; inhibition at 1 µM = < 1%

---

# Test system: Klebsiella pneumoniae
# assayProcedure: Antibacterial activity against Klebsiella pneumoniae ATCC 700603 assessed as inhibition in bacterial growth incubated for 20 to 24 hrs by CLSI based broth microdilution method
# Format: functional
# measurementContext: Klebsiella pneumoniae, ATCC 700603, time 20-24 hrs; read-out: MIC
For each record, write down the corresponding MIC.
Numbers only, in µg/mL.

Look over these answered cases.
molecule="CN(C)C(C)(C)C(=O)Nc1cc(F)c2c(c1)CC(CNCCC1CN(c3cnc4c(n3)NC(=O)CO4)C(=O)O1)C2 (centres undefined)" resultunits=µg/mL testresult=4
molecule="CN(C)CC(=O)Nc1cc(F)c2c(c1)CC(CNCCC1CN(c3cnc4c(n3)NC(=O)CO4)C(=O)O1)C2 (centres undefined)" resultunits=µg/mL testresult=2
molecule="N#Cc1cc(OCCN)cc2c1CC(CNCCC1CN(c3ccc4c(n3)NC(=O)CO4)C(=O)O1)C2 (centres undefined)" resultunits=µg/mL testresult=2

Could you now consider this next molecule?
Form field MIC, entry CS(=O)(=O)NCCOc1cc(C#N)c2c(c1)CC(CNCCC1CN(c3ccc4c(n3)NC(=O)CO4)C(=O)O1)C2 (centres undefined) : 16

---

# assaySystem: Voltage-gated inwardly rectifying potassium channel KCNH2 (Homo sapiens, UniProt Q12809)
# Sequence (Q12809 whole entry): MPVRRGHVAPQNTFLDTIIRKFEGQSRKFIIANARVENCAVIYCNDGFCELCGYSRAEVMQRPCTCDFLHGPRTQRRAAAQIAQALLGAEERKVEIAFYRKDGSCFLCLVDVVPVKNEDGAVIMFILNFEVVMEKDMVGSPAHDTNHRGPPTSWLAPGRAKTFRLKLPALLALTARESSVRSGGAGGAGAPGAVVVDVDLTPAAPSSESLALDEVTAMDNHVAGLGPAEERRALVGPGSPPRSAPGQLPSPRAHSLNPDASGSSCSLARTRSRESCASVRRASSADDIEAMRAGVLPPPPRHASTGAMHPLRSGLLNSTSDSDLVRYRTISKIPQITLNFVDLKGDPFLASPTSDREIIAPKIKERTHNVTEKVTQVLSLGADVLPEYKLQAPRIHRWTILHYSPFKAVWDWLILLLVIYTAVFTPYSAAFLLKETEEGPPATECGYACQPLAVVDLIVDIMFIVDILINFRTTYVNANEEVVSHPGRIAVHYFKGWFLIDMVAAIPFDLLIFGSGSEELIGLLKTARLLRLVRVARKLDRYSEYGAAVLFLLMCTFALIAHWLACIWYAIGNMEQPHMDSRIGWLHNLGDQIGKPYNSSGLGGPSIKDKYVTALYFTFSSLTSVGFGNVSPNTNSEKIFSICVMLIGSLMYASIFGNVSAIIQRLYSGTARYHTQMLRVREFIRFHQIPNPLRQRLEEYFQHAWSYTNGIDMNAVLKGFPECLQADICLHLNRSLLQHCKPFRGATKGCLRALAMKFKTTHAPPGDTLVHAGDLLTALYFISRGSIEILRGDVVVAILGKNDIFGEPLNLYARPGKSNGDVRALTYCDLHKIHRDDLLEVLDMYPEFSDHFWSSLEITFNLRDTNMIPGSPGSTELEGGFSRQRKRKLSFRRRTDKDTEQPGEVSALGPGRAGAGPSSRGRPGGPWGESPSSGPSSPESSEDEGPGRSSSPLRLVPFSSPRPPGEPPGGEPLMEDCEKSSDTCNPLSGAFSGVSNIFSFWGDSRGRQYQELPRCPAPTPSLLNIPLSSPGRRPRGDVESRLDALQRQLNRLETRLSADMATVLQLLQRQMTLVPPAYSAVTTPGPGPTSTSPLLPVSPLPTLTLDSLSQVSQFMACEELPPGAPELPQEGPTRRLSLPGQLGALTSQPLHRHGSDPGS
# assayProcedure: Inhibition of hERG potassium channel expressed in CHO cells by electrophysiological patch clamp assay
measuredParameter: IC50 (µM)
Answers are plain numbers, in µM.

These solved cases illustrate the format of a correct answer.
compound="C[C@H](C(=O)Nc1cc(F)c2c(c1)CC(CNCCC1CN(c3cnc4c(n3)NC(=O)CO4)C(=O)O1)C2)N(C)C (stereo in doubt; 2h)" assaysystem="Voltage-gated inwardly rectifying potassium channel KCNH2 (Homo sapiens, UniProt Q12809)" measuredparameter=IC50 testresult=126
compound="CN(C)C(C)(C)C(=O)Nc1cc(F)c2c(c1)CC(CNCCC1CN(c3cnc4c(n3)NC(=O)CO4)C(=O)O1)C2 (configuration not stated)" assaysystem="Voltage-gated inwardly rectifying potassium channel KCNH2 (Homo sapiens, UniProt Q12809)" measuredparameter=IC50 testresult=8.2

Lab note: C[C@H](C(=O)Nc1cc(F)c2c(c1)CC(CNCCC1CN(c3cnc4c(n3)NC(=O)CO4)C(=O)O1)C2)N(C)C (stereo in doubt; 2g) gave IC50 of 251

---

# assaySystem: hERG (KCNH2) (Homo sapiens)
# assayProcedure: Inhibition of hERG potassium channel expressed in CHO cells by electrophysiological patch clamp assay
# Assay type: toxicity, cell-based
# measurementContext: human, CHO cells expressing hERG
For each of the compounds below, state its IC20.
One number for each entry, in µM.

Observe how each entry below is paired with its result.
compound="N#Cc1cccc2c1CC(CNCCC1CN(c3ccc4c(n3)NC(=O)CO4)C(=O)O1)C2 (stereo not drawn)" assaysystem="hERG (KCNH2) (Homo sapiens)" resultunits=µM testresult=0.45
compound="N#Cc1cc(OCC2(N)CC2)cc2c1CC(CNCCC1CN(c3ccc4c(n3)NC(=O)CO4)C(=O)O1)C2 (stereo not drawn)" assaysystem="hERG (KCNH2) (Homo sapiens)" resultunits=µM testresult=6.4
compound="CS(=O)(=O)NCCOc1cc(C#N)c2c(c1)CC(CNCCC1CN(c3ccc4c(n3)NC(=O)CO4)C(=O)O1)C2 (stereo not drawn)" assaysystem="hERG (KCNH2) (Homo sapiens)" resultunits=µM testresult=5.9

Okay, next one:
Looking up NC1(COc2cc(F)c3c(c2)CC(CNCCC2CN(c4ccc5c(n4)NC(=O)CO5)C(=O)O2)C3)CC1 (stereo not drawn) , I see its IC20 listed as 3.1

---

# assayProcedure: Drug excretion in Wistar-Han rat urine assessed as parent compound remaining at 3 mg/kg, iv administered upto 48 hrs by LC-MS/MS method
# Type: ADME, organism-based
# measurementContext: read-out: Drug excretion
measuredParameter: dose excreted at 48 h (%)
Answers are plain numbers, in %.

For reference, reported dose excreted at 48 h for NC1(COc2cc(F)c3c(c2)CC(CNCCC2CN(c4cnc5c(n4)NC(=O)CO5)C(=O)O2)C3)CC1 (stereo unspecified) stands at 5

---

# assaySystem: CYP2D6 (Homo sapiens, UniProt P10635)
# Sequence (P10635 whole entry): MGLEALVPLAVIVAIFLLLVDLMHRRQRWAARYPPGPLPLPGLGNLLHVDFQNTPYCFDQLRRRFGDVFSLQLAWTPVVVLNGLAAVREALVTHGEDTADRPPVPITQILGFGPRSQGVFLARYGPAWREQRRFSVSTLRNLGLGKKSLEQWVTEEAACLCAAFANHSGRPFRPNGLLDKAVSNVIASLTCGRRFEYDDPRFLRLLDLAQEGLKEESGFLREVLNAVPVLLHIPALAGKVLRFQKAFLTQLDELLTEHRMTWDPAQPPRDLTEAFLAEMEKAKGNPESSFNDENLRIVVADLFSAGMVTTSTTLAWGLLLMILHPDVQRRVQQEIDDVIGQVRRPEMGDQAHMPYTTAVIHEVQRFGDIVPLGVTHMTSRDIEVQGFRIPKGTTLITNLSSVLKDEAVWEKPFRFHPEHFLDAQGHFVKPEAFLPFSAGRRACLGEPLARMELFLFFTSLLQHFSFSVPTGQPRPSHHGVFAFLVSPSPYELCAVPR
# assayProcedure: Inhibition of CYP2D6 (unknown origin) at 10 uM relative to control
# Assay type: ADME
measuredParameter: inhibition at 10 µM

get_value(item= NC1(COc2cc(F)c3c(c2)CC(CNCCC2CN(c4cnc5c(n4)NC(=O)CO5)C(=O)O2)C3)CC1 (stereo unspecified) , readout=inhibition at 10 µM) returns < 25%

---

# assaySystem: hERG (KCNH2) (Homo sapiens)
# assayProcedure: Inhibition of hERG potassium channel expressed in CHO cells by electrophysiological patch clamp assay
# Type: toxicity, cell-based
# measurementContext: human, CHO cells expressing hERG
Please respond with reported IC20 for every item in the list.

molecule="C[C@@H](C(=O)Nc1cc(F)c2c(c1)CC(CNCCC1CN(c3cnc4c(n3)NC(=O)CO4)C(=O)O1)C2)N(C)C (stereo in doubt; 2i)" testresult="33 µM"
molecule="CN(C)CC(=O)Nc1cc(F)c2c(c1)CC(CNCCC1CN(c3cnc4c(n3)NC(=O)CO4)C(=O)O1)C2 (stereo not drawn)" testresult="> 10 µM"
molecule="CC(C)(N)COc1cc(C#N)c2c(c1)CC(CNCCC1CN(c3ccc4c(n3)NC(=O)CO4)C(=O)O1)C2 (stereo not drawn)" testresult="> 10 µM"

I would be grateful if you could provide IC20 for each of the following entries.
1. C[C@@H](N)COc1cc(F)c2c(c1)CC(CN1CCC3(CC1)CN(c1cnc4c(n1)NC(=O)CO4)C(=O)O3)C2 (stereo partly drawn)
2. N#Cc1cc(OC2CNC2)cc2c1CC(CNCCC1CN(c3ccc4c(n3)NC(=O)CO4)C(=O)O1)C2 (stereo not drawn)
3. CN(C)C(C)(C)C(=O)Nc1cc(F)c2c(c1)CC(CNCCC1CN(c3cnc4c(n3)NC(=O)CO4)C(=O)O1)C2 (stereo not drawn)
4. N#CCOc1cc(F)c2c(c1)CC(CNCCC1CN(c3ccc4c(n3)NC(=O)CO4)C(=O)O1)C2 (stereo not drawn)
5. N#Cc1cc(OCC2CNC2)cc2c1CC(CNCCC1CN(c3ccc4c(n3)NC(=O)CO4)C(=O)O1)C2 (stereo not drawn)

1: > 10 µM; 2: > 10 µM; 3: 3 µM; 4: 0.066 µM; 5: > 10 µM
